- PROTOCOL SUMMARY: Stability in rat hepatic microsomes assessed as parent compound remaining after 30 mins in presence of NADPH
- Format: ADME, Microsome
- RUN PARAMETERS: liver microsomes, read-out: Stability
EXPERIMENTAL ENDPOINT: remaining at 0.5 h

Need remaining at 0.5 h of NC(=O)Cc1ccccc1-c1ccccc1F , thanks. > 95%

----------
- PROTOCOL SUMMARY: Therapeutic index, ratio of TD50 for neurotoxicity in po dosed mouse to ED50 for po dosed maximal electroshock induced seizure mouse model
- Assay type: toxicity, organism-based
- RUN PARAMETERS: in vivo, read-out: Ratio TD50/ED50
EXPERIMENTAL ENDPOINT: selectivity ratio
Reply with the value as a number alone.

Returns the measured selectivity ratio for the input compound. Input: NC(=O)Cc1ccccc1-c1ccccc1F 4.8
